test system: E57 (patient-derived glioblastoma stem cells of mesenchymal subtype); assay: surviving fraction (nuclei count normalised to DMSO); higher = more cells surviving (less toxic); conditions: 37 nM; exposure time: 72 h;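 also: nuclei counted by high-content imaging of Hoechst-stained cells in laminin-coated 384-well plates, relative to 0.1% DMSO vehicle wells, with staurosporine as cell-death control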
Counter-ions that a name gives are not always drawn.
metric: surviving fraction

| compound | observed-value |
| --- | --- |
| CCCCC(CC)CNC(=N)NC(=N)NCCCCCCNC(=N)NC(=N)NCC(CC)CCCC (stereo unspecified) [Alexidine dihydrochloride] | 0.91 |
| NC(=O)c1cccc2cn(-c3ccc([C@@H]4CCCNC4)cc3)nc12 [Niraparib] | 0.93 |
| CC[C@H]1CN2CCc3cc(OC)c(OC)cc3[C@@H]2C[C@@H]1C[C@H]1NCCc2cc(OC)c(OC)cc21 [Emetine dihydrochloride hydrate] | 0.84 |
| CC[C@@H]1C(=O)N(C)c2cnc(Nc3ccc(C(=O)N[C@H]4CC[C@H](N5CCN(CC6CC6)CC5)CC4)cc3OC)nc2N1C(C)C [Volasertib] | 0.463 |
| Cc1c(-c2ccc(-c3ccccc3F)cc2)nc2ccc(F)cc2c1C(=O)O [Brequinar sodium salt hydrate] | 0.871 |
| Nc1ccc(-c2ccc3ncc4ccc(=O)n(-c5cccc(C(F)(F)F)c5)c4c3c2)cn1 [Torin2] | 0.659 |
| COc1cc2c(NC3CCN(C(C)C)CC3)nc(C3CCCCC3)nc2cc1OCCCN1CCCC1 [UNC0638] | 1.08 |
| Nc1ncn(C2OC(CO)C(O)C2O)c(=O)n1 (stereo unspecified) [Azacytidine-5] | 0.948 |
| CC(=O)CC(c1ccc([N+](=O)[O-])cc1)c1c(O)c2ccccc2oc1=O (stereo unspecified) [Acenocoumarol] | 1.02 |
| Cc1ccc(NC(=O)c2ccc3c(c2)OCCO3)cc1NC(=O)c1ccc2nc(OCCN3CCCC3)ccc2c1 | 0.296 |
| C=CC(=O)Nc1cc(Nc2nccc(-c3cn(C)c4ccccc34)n2)c(OC)cc1N(C)CCN(C)C [Osimertinib mesylate] | 0.84 |
| OC(c1cc(C(F)(F)F)nc2c(C(F)(F)F)cccc12)C1CCCCN1 (stereo unspecified) [Mefloquine hydrochloride] | 0.93 |
| Nc1ccn([C@H]2CC[C@@H](CO)O2)c(=O)n1 [Zalcitabine] | 0.991 |
| OC[C@H]1NC[C@H](O)[C@@H](O)[C@@H]1O [1-Deoxynojirimycin] | 0.936 |
| Cc1cc(Nc2cc(N3CCN(C)CC3)nc(Sc3ccc(NC(=O)C4CC4)cc3)n2)n[nH]1 [Tozasertib] | 0.963 |
| CCn1cc(C(=O)O)c(=O)c2cc(F)c(N3CCNCC3)nc21 [Enoxacin] | 1.1 |

* * *

// reported surviving fraction per item
system: E28 (patient-derived glioblastoma stem cells of classical subtype); experiment: surviving fraction (nuclei count normalised to DMSO); higher = more cells surviving (less toxic); conditions: 1000 nM; exposure time: 72 h

| molecule | experimental-system | surviving fraction |
| --- | --- | --- |
| OCCN1C[C@H](O)[C@@H](O)[C@H](O)[C@H]1CO | E28 | 1.14 |
| Cc1c2ccncc2c(C)c2c1[nH]c1ccccc12 | E28 | 0.668 |
| CC(C)C(=O)OCC(=O)[C@@]12O[C@H](C3CCCCC3)O[C@@H]1C[C@H]1[C@@H]3CCC4=CC(=O)C=C[C@]4(C)[C@H]3[C@@H](O)C[C@@]12C [Ciclesonide] | E28 | 1.05 |
| O=C(O)c1ccc(-c2c[nH]c3ncc(-c4ccccc4)cc23)cc1C1CCCC1 | E28 | 0.755 |
| Nc1ncn([C@@H]2O[C@H](CO)[C@@H](O)[C@H]2O)c(=O)n1 | E28 | 0.984 |
| COc1ccc([C@@H]2CC(=O)c3c(O)cc(O[C@@H]4O[C@H](CO[C@@H]5O[C@@H](C)[C@H](O)[C@@H](O)[C@H]5O)[C@@H](O)[C@H](O)[C@H]4O)cc3O2)cc1O | E28 | 1.13 |
| COc1cc2c[n+](C)c3c4cc5c(cc4ccc3c2cc1OC)OCO5 [Nitidine chloride] | E28 | 0.575 |

From: the supplement of paper PMC13207355
